# target-desc: RBP4 (Mus musculus (Mouse), UniProt Q00724)
# protocol-text: Single administration test in mice, plasma RBP4 by ELISA
# Assay type: in vivo
# stated-conditions: male C57BL/6J or ICR mice, 50 mg/kg oral single dose, 4 hr after administration, mean±SD
Listing of recorded RBP4 (% of initial/Control) 4 hr by entry.

mol-smiles | test-readout | measured-value
Cc1ccc(N2CCN(C(=O)C(=O)O)CC2)c(C(C)(C)C)c1 | RBP4 (% of initial/Control) 4 hr | 54.6 ± 4.1 % of initial/Control

In the following, a different compound is considered.
[in] For the compound CC(C)(C)c1ccccc1N1CCN(C(=O)Cn2cnnn2)CC1 , what RBP4 (% of initial/Control) 4 hr is on record?
[out] 45.7 ± 0.8 % of initial/Control
